pKi: −log10 of the molar value.
Record: pKi reported on Cannabinoid receptor 1 (Rattus norvegicus, UniProt P20272).
Sequence (P20272 whole entry): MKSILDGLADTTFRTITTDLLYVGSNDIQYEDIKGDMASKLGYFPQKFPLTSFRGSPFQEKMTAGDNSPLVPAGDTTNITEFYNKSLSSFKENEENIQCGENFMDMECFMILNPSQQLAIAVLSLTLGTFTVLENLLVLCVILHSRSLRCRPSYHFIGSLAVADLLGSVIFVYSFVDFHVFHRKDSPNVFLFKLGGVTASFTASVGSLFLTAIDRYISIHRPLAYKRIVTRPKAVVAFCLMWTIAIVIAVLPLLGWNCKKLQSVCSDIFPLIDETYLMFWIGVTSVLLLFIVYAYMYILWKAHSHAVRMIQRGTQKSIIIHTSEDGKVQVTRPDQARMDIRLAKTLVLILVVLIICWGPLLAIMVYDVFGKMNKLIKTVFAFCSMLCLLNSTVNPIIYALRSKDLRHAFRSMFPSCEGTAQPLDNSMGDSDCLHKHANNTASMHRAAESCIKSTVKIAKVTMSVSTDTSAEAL

smiles entry	pKi
O=C(Nc1sc2c(c1C(=O)N1CCCCC1)CCOC2)c1ccccc1C(F)(F)F	4.82
O=C(Nc1sc2c(c1C(=O)N1CCCCC1)CCOC2)c1ccccc1OC(F)(F)F	4.65
O=C(Nc1sc2c(c1C(=O)N1CC(F)(F)C1)CCOC2)c1ccccc1C(F)(F)F	< 4.52
COCCNC(=O)c1c(NC(=O)c2ccccc2C(F)(F)F)sc2c1CCOC2	< 4.52
O=C(Nc1sc2c(c1C(=O)N1CC(F)(F)C1)CCOC2)c1c(F)cccc1C(F)(F)F	4.87

What is its pKi for Cannabinoid receptor 1 (Rattus norvegicus, UniProt P20272)? Entry: "COCCNC(=O)c1c(NC(=O)c2c(F)cccc2C(F)(F)F)sc2c1CCOC2"
< 4.52

API: value(readout=pKi, system=Cannabinoid receptor 1 (Rattus norvegicus, UniProt P20272)) for record "COC1CN(C(=O)c2c(NC(=O)c3ccccc3C(F)(F)F)sc3c2CCOC3)C1"
< 4.52

Give Cannabinoid receptor 1 (Rattus norvegicus, UniProt P20272) pKi for "O=C(Nc1sc2c(c1C(=O)N1CC(F)(F)C1)CCOC2)c1ccccc1OC(F)(F)F"
< 4.52

* * *

# procedure text: AUC in rat at 1 mg/kg, iv
# Type: ADME, organism-based
# Design: dose 1 mg/kg, route intravenous
# condition info: plasma
quantity kind: AUC (ng·h/mL)
# number only, unit ng·h/mL dropped from output

What AUC value was documented for this molecule, "O=C(Nc1sc2c(c1C(=O)N1CC(F)(F)C1)CCOC2)c1c(F)cccc1C(F)(F)F" ?
165

* * *

Data export: Ki values recorded with UniProt P21554.
Just the number please, in µM, no unit attached.

# annotated cases, reported Ki shown
smiles entry	quantity kind	measured number
O=C(Nc1sc2c(c1C(=O)N1CCCCC1)CCOC2)c1ccccc1C(F)(F)F	Ki	11.7
O=C(Nc1sc2c(c1C(=O)N1CC(F)(F)C1)CCOC2)c1c(F)cccc1C(F)(F)F	Ki	11.1
O=C(Nc1sc2c(c1C(=O)N1CCCCC1)CCOC2)c1ccccc1OC(F)(F)F	Ki	19.4

Please examine the following record next.
Fill in the recorded Ki for this compound, with UniProt P21554 as test system: "O=C(Nc1sc2c(c1C(=O)N1CC(F)(F)C1)CCOC2)c1ccccc1C(F)(F)F"
7.19

* * *

Listed next: entries and their corresponding Ki.
# measurement target: UniProt Q9QZN9
# Sequence (Q9QZN9 whole entry): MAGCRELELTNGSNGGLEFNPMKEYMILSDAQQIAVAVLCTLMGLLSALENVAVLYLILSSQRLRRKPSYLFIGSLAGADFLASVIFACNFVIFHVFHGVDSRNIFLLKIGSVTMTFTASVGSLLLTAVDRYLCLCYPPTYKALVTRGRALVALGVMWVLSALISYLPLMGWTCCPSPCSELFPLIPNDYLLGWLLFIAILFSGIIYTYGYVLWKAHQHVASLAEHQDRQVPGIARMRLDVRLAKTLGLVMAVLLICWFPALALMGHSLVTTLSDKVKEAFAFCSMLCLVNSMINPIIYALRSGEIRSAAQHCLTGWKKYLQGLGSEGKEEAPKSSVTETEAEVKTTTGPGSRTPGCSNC
Express it in µM; write the number only.

smiles entry	measurement target	quantity kind	unit name	measured number
COCCNC(=O)c1c(NC(=O)c2c(F)cccc2C(F)(F)F)sc2c1CCOC2	UniProt Q9QZN9	Ki	µM	1.7
COC1CN(C(=O)c2c(NC(=O)c3ccccc3C(F)(F)F)sc3c2CCOC3)C1	UniProt Q9QZN9	Ki	µM	3.11
O=C(Nc1sc2c(c1C(=O)N1CC(F)(F)C1)CCOC2)c1ccccc1OC(F)(F)F	UniProt Q9QZN9	Ki	µM	4.62
COCCNC(=O)c1c(NC(=O)c2ccccc2C(F)(F)F)sc2c1CCOC2	UniProt Q9QZN9	Ki	µM	2.54
O=C(Nc1sc2c(c1C(=O)N1CC(F)(F)C1)CCOC2)c1ccccc1C(F)(F)F	UniProt Q9QZN9	Ki	µM	0.594
O=C(Nc1sc2c(c1C(=O)N1CCCCC1)CCOC2)c1ccccc1OC(F)(F)F	UniProt Q9QZN9	Ki	µM	2.13
O=C(Nc1sc2c(c1C(=O)N1CCCCC1)CCOC2)c1ccccc1C(F)(F)F	UniProt Q9QZN9	Ki	µM	1.61

Read the next record carefully.
Please provide the recorded Ki for "O=C(Nc1sc2c(c1C(=O)N1CC(F)(F)C1)CCOC2)c1c(F)cccc1C(F)(F)F" , tested on UniProt Q9QZN9.
0.63

* * *

# measurement target: Cannabinoid receptor 1 (Homo sapiens, UniProt P21554)
# Sequence (P21554 whole entry): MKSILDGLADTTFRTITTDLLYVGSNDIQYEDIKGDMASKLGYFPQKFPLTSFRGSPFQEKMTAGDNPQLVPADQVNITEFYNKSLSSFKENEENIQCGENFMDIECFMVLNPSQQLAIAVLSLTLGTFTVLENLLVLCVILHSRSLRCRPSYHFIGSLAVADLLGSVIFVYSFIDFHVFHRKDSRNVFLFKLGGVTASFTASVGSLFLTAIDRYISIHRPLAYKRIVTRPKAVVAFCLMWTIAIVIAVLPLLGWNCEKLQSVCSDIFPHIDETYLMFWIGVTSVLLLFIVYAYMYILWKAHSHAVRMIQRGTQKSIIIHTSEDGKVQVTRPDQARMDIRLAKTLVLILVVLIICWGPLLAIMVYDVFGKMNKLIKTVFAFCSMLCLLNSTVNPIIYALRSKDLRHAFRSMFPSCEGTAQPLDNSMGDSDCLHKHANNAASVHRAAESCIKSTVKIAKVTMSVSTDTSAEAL
# procedure text: Agonist activity at human CB1 receptor after 4 hrs by luciferase reporter gene assay
// classify: if (EC50 < 300 nM) True else False

Examples with answers:
compound	class label
COC1CN(C(=O)c2c(NC(=O)c3ccccc3C(F)(F)F)sc3c2CCOC3)C1	False
COC1CN(C(=O)c2c(NC(=O)c3ccccc3OC(F)(F)F)sc3c2CCOC3)C1	False
O=C(Nc1sc2c(c1C(=O)N1CCOCC1)CCOC2)c1ccccc1Cl	False
CC1OCc2sc(NC(=O)CC(C)(C)C)c(C(=O)N3CCCCC3)c21 (stereo not given)	False

In plain terms, does "O=C(CN1CCCC1)Nc1sc2c(c1C(=O)N1CCC(F)(F)CC1)CCCC2" come in under 300 nM for EC50?
False

Given the entry "CC(C)(C)CC(=O)Nc1sc2c(c1C(=O)N1CC(F)(F)C1)CCCC2" , would its reported EC50 be below 300 nM?
False

I'd appreciate it if you could check whether CC1OCc2sc(NC(=O)CC(C)(C)C)c(C(=O)N3CC(F)(F)C3)c21 (stereo not given) has EC50 smaller than 300 nM.
True

Consider "COCCNC(=O)c1c(NC(=O)c2ccccc2C(F)(F)F)sc2c1CCOC2" . Does its EC50 lie strictly below 300 nM?
False

Confirm or reject: EC50 of "O=C(Nc1sc2c(c1C(=O)N1CC(F)(F)C1)CCC(F)(F)C2)c1ccccc1Cl" lies strictly below 300 nM
True

Hello, I'm reviewing records and need to know if EC50 of "COC1CN(C(=O)c2c(NC(=O)CC(C)(C)C)sc3c2CCCC3)C1" is below 300 nM. Could you check?
False

* * *

Each entry below carries its recorded Ratio EC50.
# Species on record: Homo sapiens
# procedure text: Selectivity ratio of EC50 for human CB1 receptor to EC50 for human CB2 receptor
Number only, no unit.

These solved cases illustrate the format of a correct answer.
smiles entry	quantity kind	measured number
O=C(Nc1sc2c(c1C(=O)N1CCC(F)(F)CC1)CCOC2)c1c(F)cccc1C(F)(F)F	Ratio EC50	71
COCCNC(=O)c1c(NC(=O)CC(C)(C)C)sc2c1CCCC2	Ratio EC50	84

Now for the molecule whose Ratio EC50 we want.
Using the record for "COCCNC(=O)c1c(NC(=O)CC(C)(C)C)sc2c1C(C)(C)CC2" , report its Ratio EC50.
62

* * *

Recorded measurements of EC50, one per entry
# measurement target: Cannabinoid receptor 2 (Homo sapiens)
# Sequence (P34972 whole entry): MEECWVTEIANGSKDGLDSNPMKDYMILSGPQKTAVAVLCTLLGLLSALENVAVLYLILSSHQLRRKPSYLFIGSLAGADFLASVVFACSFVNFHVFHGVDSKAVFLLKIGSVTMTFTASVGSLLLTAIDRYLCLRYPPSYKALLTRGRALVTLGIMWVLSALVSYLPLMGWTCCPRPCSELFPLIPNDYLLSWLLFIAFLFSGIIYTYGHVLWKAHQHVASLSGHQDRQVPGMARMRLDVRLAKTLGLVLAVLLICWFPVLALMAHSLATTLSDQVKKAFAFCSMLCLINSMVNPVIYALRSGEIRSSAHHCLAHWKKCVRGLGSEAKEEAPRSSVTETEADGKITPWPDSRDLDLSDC
# procedure text: Agonist activity at human CB2 receptor after 4 hrs by luciferase reporter gene assay
# Format: functional
Write the number in nM without appending the unit.

Worked examples, 2 compounds total:
smiles entry	measurement target	unit name	EC50
O=C(Nc1sc2c(c1C(=O)N1CCC(F)(F)CC1)CCOC2)c1ccccc1OC(F)(F)F	Cannabinoid receptor 2 (Homo sapiens)	nM	3.3
COCCNC(=O)c1c(NC(=O)c2c(F)cccc2C(F)(F)F)sc2c1CCOC2	Cannabinoid receptor 2 (Homo sapiens)	nM	24

API: the following record is the query input.
Give its EC50 value. Item: "O=C(Nc1sc2c(c1C(=O)N1CC(F)(F)C1)CCOC2)c1ccccc1C(F)(F)F"
2.5

* * *

# measurement target: Cannabinoid receptor 2 (Homo sapiens)
# procedure text: Agonist activity at human CB2 receptor after 4 hrs by luciferase reporter gene assay
quantity kind: pEC50
A value of pEC50 is the negative decimal logarithm of a concentration given in moles per litre.

Take a look at these entries with their results.
smiles entry	pEC50
CC1(C)CCc2sc(NC(=O)c3ccccc3Cl)c(C(=O)NCC3CC3)c21	9.26
O=C(Nc1sc2c(c1C(=O)NCC1CC1)CCOC2)c1c(F)cccc1C(F)(F)F	7.96
O=C(Nc1sc2c(c1C(=O)N1CC(F)(F)C1)CCC(F)(F)C2)c1ccccc1Cl	7.31
O=C(Nc1sc2c(c1C(=O)N1CCOCC1)CCOC2)c1ccccc1Cl	6.64
COC1CN(C(=O)c2c(NC(=O)c3c(F)cccc3C(F)(F)F)sc3c2CCOC3)C1	7.62
O=C(Nc1sc2c(c1C(=O)N1CCOCC1)CCOC2)c1ccccc1C(F)(F)F	7.46

Record request: pEC50 value, item "COCCNC(=O)c1c(NC(=O)c2ccccc2C(F)(F)F)sc2c1CCOC2"
7.77

Fill in the blank: the reported pEC50 of "O=C(Nc1sc2c(c1C(=O)N1CCOCC1)CCOC2)c1cccc(Cl)c1" is ____.
5.85

* * *

# measurement target: Cannabinoid receptor 1 (Homo sapiens)
# procedure text: Agonist activity at human CB1 receptor after 4 hrs by luciferase reporter gene assay
# Assay type: functional
Measured EC50 of individual entries

// solved cases for EC50 follow
smiles entry	result
O=C(Nc1sc2c(c1C(=O)N1CCOCC1)CCOC2)c1ccc(Cl)cc1	> 10 µM
O=C(CN1CCCC1)Nc1sc2c(c1C(=O)N1CC(F)(F)C1)CCCC2	> 10 µM

// below: EC50 requested for another molecule
# get_value(readout='EC50', item= "O=C(CN1CCCCC1)Nc1sc2c(c1C(=O)N1CC(F)(F)C1)CCCC2" )
> 10 µM
